Target: human glucagon-like peptide 1 receptor (GLP-1R) (human, UniProt P43220 24-463)
Assay: cell-based or functional assay
Starred links: 1 amine or outer side, 2 acyl side, 3 side chain; linkers in the order of their positions; H or OH if unused. Groups on a side chain read outwards from the residue. *: point of attachment. γGlu = O=C(O)[C@H](CCC(=O)[*:2])N[*:1]; Palmitoyl = CCCCCCCCCCCCCCCC(=O)*
Below, each entry is listed alongside its reported EC50 hGLP-1R CHO-K1 [nM] (cAMP, AlphaScreen).
Give your result in nM as a bare value.

>>> reportedvalue("H-HAQGTFTSDYSKYLDEK([γGlu-Palmitoyl])AAKDFIEWLESA-NH2 [Compound 11: H-HAQGTFTSDYSKYLDE-K(Hexadecanoyl-isoGlu)-AAKDFIEWLESA-NH2]")
0.14
>>> reportedvalue("H-HAQGTFTSDYSKYLDSK([γGlu-Palmitoyl])AAHDFVEWLLSA-NH2 [Compound 1: H-HAQGTFTSDYSKYLDS-K(Hexadecanoyl-isoGlu)-AAHDFVEWLLSA-NH2]")
0.52
>>> reportedvalue("HXQGTFTSDYSKYLDEKAAKDFIEWLESA (position 2 is DAla (D-alanine); Lys17 side chain conjugated to hexadecanoyl-isoGlu; C-terminal amide (NH2)) [Compound 12: H-H-DAla-QGTFTSDYSKYLDE-K(Hexadecanoyl-isoGlu)-AAKDFIEWLESA-NH2]")
0.14

Note: attention shifts to another entry.
Inquiry: Please give measured EC50 hGLP-1R CHO-K1 [nM] (cAMP, AlphaScreen) of the following entry: HTQGTFTSDYSKYLDEKAAKDFIEWLESA (position 2 is Abu ((S)-2-aminobutyric acid); Lys17 side chain conjugated to hexadecanoyl-isoGlu; C-terminal amide (NH2)) [Compound 10: H-H-Abu-QGTFTSDYSKYLDE-K(Hexadecanoyl-isoGlu)-AAKDFIEWLESA-NH2]
Reply text: 0.27

These entries and their values trace back to patent US9988429B2.
